Each recorded value in this set is attributed to ChEMBL document CHEMBL5055650.

IC50 overview
- Tgt: Histone deacetylase 2 (Homo sapiens)
- Sequence (Q92769 whole entry): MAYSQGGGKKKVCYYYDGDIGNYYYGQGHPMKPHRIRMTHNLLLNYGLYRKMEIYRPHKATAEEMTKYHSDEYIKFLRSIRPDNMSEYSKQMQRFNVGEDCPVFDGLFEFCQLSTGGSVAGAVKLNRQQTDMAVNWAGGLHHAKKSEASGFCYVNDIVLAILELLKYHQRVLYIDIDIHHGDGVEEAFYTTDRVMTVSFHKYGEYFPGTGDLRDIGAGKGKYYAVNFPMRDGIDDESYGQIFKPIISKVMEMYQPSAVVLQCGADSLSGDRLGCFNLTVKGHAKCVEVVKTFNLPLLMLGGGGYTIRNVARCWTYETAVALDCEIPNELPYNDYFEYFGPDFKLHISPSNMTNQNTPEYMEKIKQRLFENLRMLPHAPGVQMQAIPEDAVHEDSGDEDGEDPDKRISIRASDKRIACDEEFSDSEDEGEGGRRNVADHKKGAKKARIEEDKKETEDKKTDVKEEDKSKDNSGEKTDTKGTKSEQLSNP
Observed Property: IC50 (nM)

[
  {
    "Smiles Input": "COc1ccc(S(=O)(=O)n2ccc(/C=C/C(=O)NO)c2)cc1NC(=O)c1[nH]c(C)c2c1CCCCC2=O",
    "Measured Number": 208
  },
  {
    "Smiles Input": "Cc1[nH]c(C(=O)Nc2cc(S(=O)(=O)N3CCOCC3)ccc2OCCCCCCCC(=O)NO)c2c1C(=O)CCCC2",
    "Measured Number": 534
  }
]

----------
- Assay Info: Nonlethal toxicity in zebrafish embryos assessed as embryo survival at 5 uM after 72 hrs by visual analysis (reference value: 100%)
- Assay type: organism-based, Danio rerio
- Experimental Setup: in vivo
Observed Property: survival at 72 h, 5 µM (%)

[
  {
    "Smiles Input": "Cc1[nH]c(C(=O)Nc2cc(S(=O)(=O)N3CCOCC3)ccc2OCCCCCCCC(=O)NO)c2c1C(=O)CCCC2",
    "Observed Property": "survival at 72 h, 5 µM",
    "Value Units": "%",
    "Measured Number": 95
  }
]
